- Tested on: Bacteroides bivius-disiens
- test: MIC in vitro, Bacteroides bivius-disiens (NCCLS M11-T2, agar Wilken-Chalgren)
- Type: cell-based
- experimentalConditions: 40 strains
The following compounds are shown together with reported MIC50 values.
Entry rule: numbers only, all in µg/mL.

[
  {
    "chemicalStructure": "Cc1ncc([N+](=O)[O-])n1CCO",
    "assayedSystem": "Bacteroides bivius-disiens",
    "testReadout": "MIC50",
    "readingUnit": "µg/mL",
    "testResult": 2
  },
  {
    "chemicalStructure": "CO[C@H]1/C=C/O[C@@]2(C)Oc3c(C)c(O)c4c(O)c(c5c(nc6cc(C)ccn65)c4c3C2=O)NC(=O)/C(C)=C\\C=C\\[C@H](C)[C@H](O)[C@@H](C)[C@@H](O)[C@@H](C)[C@H](OC(C)=O)[C@@H]1C",
    "assayedSystem": "Bacteroides bivius-disiens",
    "testReadout": "MIC50",
    "readingUnit": "µg/mL",
    "testResult": 0.12
  }
]

Please look at the following compound next.
Prompt line: Entry under review: CC1(C)S[C@@H]2[C@H](NC(=O)[C@H](N)c3ccccc3)C(=O)N2[C@H]1C(=O)O . Reported MIC50?
Response line: 4

----------
- System: Bacteroides bivius-disiens
- test: MIC in vitro, Bacteroides bivius-disiens (NCCLS M11-T2, agar Wilken-Chalgren)
- Type: cell-based
- experimentalConditions: 40 strains
testReadout: MIC90 (µg/mL)
Write the answer as a number in µg/mL, unit excluded.

[
  {
    "chemicalStructure": "CC1(C)S[C@@H]2[C@H](NC(=O)[C@H](N)c3ccccc3)C(=O)N2[C@H]1C(=O)O",
    "testResult": 64
  },
  {
    "chemicalStructure": "CO[C@H]1/C=C/O[C@@]2(C)Oc3c(C)c(O)c4c(O)c(c5c(nc6cc(C)ccn65)c4c3C2=O)NC(=O)/C(C)=C\\C=C\\[C@H](C)[C@H](O)[C@@H](C)[C@@H](O)[C@@H](C)[C@H](OC(C)=O)[C@@H]1C",
    "testResult": 0.25
  }
]

Moving on to another compound below.
Prompt line: Requested field: MIC90. Item: Cc1ncc([N+](=O)[O-])n1CCO
Response line: 4
